Documented protein stability index across a set of sequences
experiment: protein stability index of a GFP-peptide fusion (GPS, HEK-293T) (PSI 1-6); higher = more stable; settings: treatment: DMSO; c terminus: a fixed tail appended;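 also: 24-mer peptide tiles fused after GFP, lentivirally expressed, FACS-sorted into six equal bins by GFP/DsRed ratio, decoded by Illumina sequencing, PSI is the read-weighted mean bin number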
Answer with a bare number; do not write a unit.

INSERT INTO measurements (polymer_sequence, recorded_endpoint, reported) VALUES
  ('RLCLVCGDIASGYHYGVASCEACK [ESRRG]', 'protein stability index', 4.15),
  ('LECEINTYRSLLESEDCKLPCNPC [KRT34]', 'protein stability index', 3.81),
  ('MQPSKPQQPSLNTMIQQQNMQQPM [CLINT1]', 'protein stability index', 4.1),
  ('TRKINNSFLRDHSYATEADIISTV [PPP2R2B]', 'protein stability index', 3.32),
  ('RSSGSEGTPADTGDLSPGHGASAP [PWWP2B]', 'protein stability index', 5.38),
  ('EPFVLPASSVESTLPVLEASSWKK [FBXO34]', 'protein stability index', 4.57),
  ('IQASAGVISKKAKVKVPQKTAGKE [ZNF75A]', 'protein stability index', 4.6),
  ('PRGSETERLLTPNPGYGTQAGPSP [MCOLN1]', 'protein stability index', 4.41),
  ('QPCNPPAPAGDKGFQPPSPSLRPR [DMRTC1]', 'protein stability index', 5.27),
  ('TEFTLGDDKHYGGFTNKQLQSGQE [PTPRD]', 'protein stability index', 4.91);

Okay, next one:
Item QVKFGQQNPRQVAQSEAEKKLKKD [ZC3H15] has what recorded protein stability index?
5.37
